Data credit: paper PMC6829886

Method: Metabolic stability in mouse liver microsomes
Format: in vitro ADME
Test Conditions: read-out: MLM, % Remaining after 60 min

{"Compound": "CC(C)CC[C@@H](O)[C@](C)(O)[C@H]1CC[C@H]2[C@@H]3CC=C4C[C@@H](O)CC[C@]4(C)[C@H]3CC[C@]12C [Oxy16, reference compound]", "remaining at 1 h (%)": 5}
{"Compound": "C[C@]12CC[C@H]3[C@@H](CC=C4C[C@@H](O)CC[C@@]43C)[C@@H]1CC[C@@H]2[C@](C)(O)CCc1cccnc1 [Oxy210]", "remaining at 1 h (%)": 61}

====

Method: pKa
Type: physicochemical
Test Conditions: printed in Figure 1, method not stated

{"Smiles Str": "C[C@]12CC[C@H]3[C@@H](CC=C4C[C@@H](O)CC[C@@]43C)[C@@H]1CC[C@@H]2[C@](C)(O)CCc1cccnc1", "pKa": "~5"}

====

Method: Single oral dose pharmacokinetic study in mice
Type: in vivo
Test Conditions: mouse, plasma; balb/c mice, oral gavage, single dose 50 mg/kg
Assay Metric: AUC(0-inf) (ng·h/mL)

{"Molecule": "C[C@]12CC[C@H]3[C@@H](CC=C4C[C@@H](O)CC[C@@]43C)[C@@H]1CC[C@@H]2[C@](C)(O)CCc1cccnc1 [Oxy210]", "Assay Metric": "AUC(0-inf)", "Units Label": "ng·h/mL", "Value Measured": 9210}

====

Form field: half-life (one value per entry).
Method: Metabolic stability in human liver microsomes
Assay type: in vitro ADME
Test Conditions: human, liver microsomes, read-out: HLM, Half-Life
Assay Metric: half-life (h)

{"Molecule": "CC(C)CC[C@@H](O)[C@](C)(O)[C@H]1CC[C@H]2[C@@H]3CC=C4C[C@@H](O)CC[C@]4(C)[C@H]3CC[C@]12C [Oxy16, reference compound]", "Assay Metric": "half-life", "Qualifier Symbol": "<", "Value Measured": 0.25}
{"Molecule": "C[C@]12CC[C@H]3[C@@H](CC=C4C[C@@H](O)CC[C@@]43C)[C@@H]1CC[C@@H]2[C@](C)(O)CCc1cccnc1", "Assay Metric": "half-life", "Qualifier Symbol": "=", "Value Measured": 1.15}

====

Method: Single oral dose pharmacokinetic study in mice
Type: in vivo
Test Conditions: mouse, plasma; balb/c mice, oral gavage, single dose 50 mg/kg

{"Smiles Str": "C[C@]12CC[C@H]3[C@@H](CC=C4C[C@@H](O)CC[C@@]43C)[C@@H]1CC[C@@H]2[C@](C)(O)CCc1cccnc1", "Tmax, min": 30}
